Biological target: T1, GPR39 (G protein-coupled receptor 39) (Homo sapiens (Human), UniProt O43194 1-453)
T1 sequence: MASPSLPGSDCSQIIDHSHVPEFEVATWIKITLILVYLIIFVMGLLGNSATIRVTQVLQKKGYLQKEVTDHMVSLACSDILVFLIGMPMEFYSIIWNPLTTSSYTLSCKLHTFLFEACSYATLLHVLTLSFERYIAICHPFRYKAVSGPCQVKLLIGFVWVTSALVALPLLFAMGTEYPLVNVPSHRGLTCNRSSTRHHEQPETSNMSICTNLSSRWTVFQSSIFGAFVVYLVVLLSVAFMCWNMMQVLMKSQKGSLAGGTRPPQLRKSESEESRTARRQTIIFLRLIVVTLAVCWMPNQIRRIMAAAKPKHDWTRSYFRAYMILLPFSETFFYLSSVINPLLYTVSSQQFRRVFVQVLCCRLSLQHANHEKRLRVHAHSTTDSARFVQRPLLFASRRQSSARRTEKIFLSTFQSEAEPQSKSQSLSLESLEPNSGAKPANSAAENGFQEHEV
Assay: cell-based or functional assay
Numbered stars: 1 amine (or outer) side, 2 acyl side, 3 side chain; on linkers, the order of the positions; unused ones are H or OH. Square brackets hold non-standard residues; d marks the D form. Ends that are not written are not given here. * marks the point of attachment. DAMP‑3 = His whose imidazole is a 1,3-diphenethyl-2,3-dihydro-1H-imidazol-4-yl group, O=C([C@H](CC1=CN(CCc2ccccc2)CN1CCc1ccccc1)N[*:1])[*:2]; thiophene = His carrying a thiophen-2-yl group on the imidazole (imidazole C2), c1csc(*)c1; 1‑phenyl = His whose imidazole is a 1-phenyl-1H-imidazol-4-yl group, c1ccc(*)cc1; 4‑chlorobenzhydryl = Clc1ccc(C(c2ccccc2)*)cc1; Fm = 9H-fluoren-9-yl, c1ccc2c(c1)-c1ccccc1C2*; dPhe(4-Br) = N[C@H](Cc1ccc(Br)cc1)C(=O)O; dPhe(4-Me) = Cc1ccc(C[C@@H](N)C(=O)O)cc1; Trt = c1ccc(C(c2ccccc2)(c2ccccc2)*)cc1; Octanoyl = CCCCCCCC(=O)*
RECORDED METRIC: ECmax (-fold induction over basal)

Item His(Trt)-Lys(Octanoyl)-Phe [HKFY-49] has what recorded ECmax (-fold induction over basal)? 18.3 -fold induction over basal

Continuing:
Item H(DAMP‑3)K(Octanoyl)FY [HKFY-6] has what recorded ECmax (-fold induction over basal)? 15 -fold induction over basal

Also need H(Trt)K(caproic)FYDQQARF [HKFY-56] , thanks. 14.9 -fold induction over basal

Also need H(thiophene)K(Octanoyl)[dPhe(4-Me)]Y [HKFY-63] , thanks. 13.5 -fold induction over basal

Also need H(Fm)K(Octanoyl)FY [HKFY-18] , thanks. 10 -fold induction over basal

Also need H(Trt)K(Octanoyl)FYW [HKFY-44] , thanks. 20 -fold induction over basal

Also need H(Trt)K(Octanoyl)FS [HKFY-50] , thanks. 16.2 -fold induction over basal

Also need H(Trt)K(Octanoyl)FYSDQQARF (not fully specified; printed as His(trt)-Lys(caprylic)-Phe-Tyr-Ser-Asp-Gln-Gln-Ala-Arg-Phe) [HKFY-38] , thanks. 16.5 -fold induction over basal

Also need Lys(Octanoyl)-Phe-Tyr [HKFY-54] , thanks. 7.8 -fold induction over basal

Also need H(1‑phenyl)K(Octanoyl)[dPhe(4-Me)]Y [HKFY-58] , thanks. 9.12 -fold induction over basal

Also need H(4‑chlorobenzhydryl)K(Octanoyl)FY (not fully specified) [HKFY-21] , thanks. 18.3 -fold induction over basal

Also need H(Trt)K(Octanoyl)[dPhe(4-Br)]Y [HKFY-29] , thanks. 26.8 -fold induction over basal

Also need [dH](Trt)K(Octanoyl)FY [HKFY-4] , thanks. 16.8 -fold induction over basal
